# Lookup of reported EC50 keyed by entry
Tested on: HBV rcDNA in HepDE19 cells
Test: HepDE19 assay with bDNA quantitation of HBV rcDNA
Format: cell-based, hepatitis B virus
Conditions: Hepatitis B virus, HepDE19, HepDE19 assay, inhibition of rcDNA formation, bDNA quantitation; read-out: DE-19bDNA EC50
Report the figure in nM without appending any unit label.

The examples below pair each entry with its known result.
>  <compound>
CN(C(=O)c1ccn2c(Cl)ccc2c1)[C@@H]1COCc2[nH]c(=O)c3cc(F)c(F)cc3c21

>  <subject-of-test>
HBV rcDNA in HepDE19 cells

>  <assay-result>
10

$$$$
>  <compound>
CN(C(=O)c1cc2cc(F)c(F)cc2[nH]1)[C@@H]1COCc2[nH]c(=O)c3cc(F)c(F)cc3c21

>  <subject-of-test>
HBV rcDNA in HepDE19 cells

>  <assay-result>
5

$$$$

Value lookup for EC50; key = "CN(C(=O)c1cc(-c2ccc(F)cc2)on1)[C@@H]1COCc2[nH]c(=O)c3cc(F)c(F)cc3c21"
14700

Looking for the measured EC50 of CN(C(=O)c1cc2cc(C#N)ccc2[nH]1)C1CNCc2[nH]c(=O)c3cc(F)c(F)cc3c21 (single isomer, unassigned) , can you help?
190

###

System: HBV rcDNA in HepDE19 cells
Assay: HepDE19 assay with bDNA quantitation of HBV rcDNA
Assay type: cell-based, hepatitis B virus
Conditions: Hepatitis B virus, HepDE19, HepDE19 assay, inhibition of rcDNA formation, bDNA quantitation; read-out: DE-19bDNA EC50
hey, just use T if measured EC50 is less than 20 nM, otherwise F

Here's what some known entries look like.
>  <molecule>
CN(C(=O)C(F)(F)c1ccccc1)[C@@H]1COCc2[nH]c(=O)c3cc(F)c(F)cc3c21 [Compound 512]

>  <label-class>
F

$$$$
>  <molecule>
CN(C(=O)c1nc2ccccc2o1)[C@@H]1COCc2[nH]c(=O)c3cc(F)c(F)cc3c21 [Compound 124]

>  <label-class>
F

$$$$
>  <molecule>
COc1nc2c(c3cc(F)c(F)cc13)[C@H](N(C)C(=O)c1cc3cc(F)c(F)cc3[nH]1)COC2 [Compound 241]

>  <label-class>
F

$$$$

# strict comparison: is reported EC50 < 20 nM? input = Cc1cc(F)cc2[nH]c(C(=O)N(C)[C@@H]3COCc4[nH]c(=O)c5cc(F)c(F)cc5c43)cc12 [Compound 344]
T

Hello, I'm reviewing records and need to know if EC50 of CN(C(=O)c1ccc2cc(C(F)(F)F)cn2c1)[C@@H]1COCc2[nH]c(=O)c3cc(F)c(F)cc3c21 [Compound 311] is below 20 nM. Could you check?
F

Does this molecule meet the criterion EC50 < 20 nM? CN(C(=O)c1ccc2nccn2c1)[C@@H]1COCc2[nH]c(=O)c3cc(F)c(F)cc3c21 [Compound 306]
F

Quick check: EC50 of CN(C(=O)c1cc(F)c(Br)c(F)c1)[C@@H]1COCc2[nH]c(=O)c3cc(F)c(F)cc3c21 [Compound 172] under 20 nM?
T

Item CN(C(=O)[C@@H]1Cc2ccccc2N1)C1COCc2[nH]c(=O)c3cc(F)ccc3c21 (single isomer, unassigned) [Compound 4] : EC50 beneath 20 nM, strictly?
F

###

System: HBV rcDNA in HepDE19 cells
Experiment: HepDE19 assay with bDNA quantitation of HBV rcDNA
Type: cell-based, hepatitis B virus
Settings: Hepatitis B virus, HepDE19, HepDE19 assay, inhibition of rcDNA formation, bDNA quantitation; read-out: DE-19bDNA EC50
The following compounds are listed with their measured EC50 values.
Could you give me the number in nM? Just the number is fine.

>  <compound>
Cc1cc(F)cc2[nH]c(C(=O)N(C)[C@@H]3CCCc4[nH]c(=O)c5cc(F)ccc5c43)cc12

>  <subject-of-test>
HBV rcDNA in HepDE19 cells

>  <EC50 / nM>
30

$$$$
>  <compound>
CNS(=O)(=O)c1cccc(C(=O)N(C)[C@@H]2COCc3[nH]c(=O)c4cc(F)c(F)cc4c32)c1

>  <subject-of-test>
HBV rcDNA in HepDE19 cells

>  <EC50 / nM>
890

$$$$
>  <compound>
CN(C(=O)c1cc(-c2ccc(F)cc2)no1)[C@@H]1COCc2[nH]c(=O)c3cc(F)c(F)cc3c21

>  <subject-of-test>
HBV rcDNA in HepDE19 cells

>  <EC50 / nM>
15100

$$$$

// query EC50 value for entry "CN(C(=O)c1cc2cc(F)c(C(F)F)cc2[nH]1)[C@@H]1COC(=O)c2[nH]c(=O)c3cc(F)c(F)cc3c21"
10

Param item = "CN(C(=O)c1cc2cc(F)c(F)cc2[nH]1)[C@@H]1COC(=O)c2[nH]c(=O)c3cc(F)c(F)cc3c21" ; retrieve measured EC50.
10

Fill blank: measured EC50 of the compound "CN([C@@H]1COCc2[nH]c(=O)c3cc(F)c(F)cc3c21)S(=O)(=O)c1ccc(F)c(Cl)c1" is ____.
18000

###

System: HBV rcDNA in HepDE19 cells
Experiment: HepDE19 assay with bDNA quantitation of HBV rcDNA
Assay type: cell-based, hepatitis B virus
Conditions: Hepatitis B virus, HepDE19, HepDE19 assay, inhibition of rcDNA formation, bDNA quantitation; read-out: DE-19bDNA EC50
recorded-endpoint: EC50

Completed entries (count: 2):
>  <compound>
CN(C(=O)c1cnc(C(F)(F)F)c(Cl)c1)C1COCc2[nH]c(=O)c3cc(F)ccc3c21 (single isomer, unassigned)

>  <subject-of-test>
HBV rcDNA in HepDE19 cells

>  <EC50>
18300 nM

$$$$
>  <compound>
CN(C(=O)[C@](C)(O)c1ccccc1)[C@@H]1COCc2[nH]c(=O)c3cc(F)c(F)cc3c21

>  <subject-of-test>
HBV rcDNA in HepDE19 cells

>  <EC50>
3200 nM

$$$$

Give its EC50 value. Item: "CN(C(=O)c1ccc(-c2cccc(F)c2)cc1)[C@@H]1COCc2[nH]c(=O)c3cc(F)c(F)cc3c21"
4700 nM

Please look up its EC50: "CN(C(=O)[C@H](O)Cc1ccccc1)[C@@H]1COCc2[nH]c(=O)c3cc(F)c(F)cc3c21"
480 nM

Please report the recorded EC50 for "CN(C(=O)c1cc2c(C(F)F)cccn2c1)[C@@H]1COCc2[nH]c(=O)c3cc(F)c(F)cc3c21" .
10 nM

// query EC50 value for entry "CN(C(=O)c1cc2c(Br)c(Cl)ncc2[nH]1)[C@@H]1COCc2[nH]c(=O)c3cc(F)c(F)cc3c21"
20 nM

Any idea what EC50 was measured for "CN(C(=O)c1nc2ccccc2s1)[C@@H]1COCc2[nH]c(=O)c3cc(F)c(F)cc3c21" ?
1500 nM

###

System: HBV rcDNA in HepDE19 cells
Assay: HepDE19 assay with bDNA quantitation of HBV rcDNA
Type: cell-based, hepatitis B virus
Details: Hepatitis B virus, HepDE19, HepDE19 assay, inhibition of rcDNA formation, bDNA quantitation; read-out: DE-19bDNA EC50
recorded-endpoint: EC50 (nM)
Numbers only; they are read as nM.

>  <compound-structure-string>
CN(C(=O)c1ccccc1)[C@@H]1COCc2[nH]c(=O)c3cc(F)c(F)cc3c21

>  <units-of-measure>
nM

>  <EC50>
1010

$$$$
>  <compound-structure-string>
CN(C(=O)c1ccc(OC(F)F)c(F)c1)[C@@H]1COCc2[nH]c(=O)c3cc(F)c(F)cc3c21

>  <units-of-measure>
nM

>  <EC50>
150

$$$$
>  <compound-structure-string>
CN(C(=O)c1cc2scc(Cl)c2[nH]1)[C@@H]1COCc2[nH]c(=O)c3cc(F)c(F)cc3c21

>  <units-of-measure>
nM

>  <EC50>
70

$$$$

# query: EC50 of entry "CN(C(=O)[C@@H](O)Cc1ccccc1)[C@@H]1COCc2[nH]c(=O)c3cc(F)c(F)cc3c21"
3200

Any idea what its EC50 is? The compound is "CN(C(=O)c1cc(Br)c[nH]1)[C@@H]1COCc2[nH]c(=O)c3cc(F)c(F)cc3c21"
220

###

Tested on: HBV rcDNA in HepDE19 cells
Assay: HepDE19 assay with bDNA quantitation of HBV rcDNA
Format: cell-based, hepatitis B virus
Conditions: Hepatitis B virus, HepDE19, HepDE19 assay, inhibition of rcDNA formation, bDNA quantitation; read-out: DE-19bDNA EC50
Parameter pEC50: see the listing below.
Keep it numeric: pEC50 is minus log10 of the concentration in mol/L.

Consider the worked cases shown below.
>  <molecule>
CN(C(=O)c1ccc2c(Cl)n(C(F)F)nc2c1)[C@@H]1COCc2[nH]c(=O)c3cc(F)c(F)cc3c21 [Compound 358]

>  <subject-of-test>
HBV rcDNA in HepDE19 cells

>  <pEC50>
6.17

$$$$
>  <molecule>
CN(C(=O)c1cc2cc(F)ncc2[nH]1)[C@@H]1COCc2[nH]c(=O)c3cc(F)c(F)cc3c21 [Compound 310]

>  <subject-of-test>
HBV rcDNA in HepDE19 cells

>  <pEC50>
7.52

$$$$
>  <molecule>
CN(C(=O)c1cccc(-c2ccccc2)c1)[C@@H]1COCc2[nH]c(=O)c3cc(F)c(F)cc3c21 [Compound 288]

>  <subject-of-test>
HBV rcDNA in HepDE19 cells

>  <pEC50>
4.95

$$$$
>  <molecule>
CCc1ccc(C(=O)N(C)[C@@H]2COCc3[nH]c(=O)c4cc(F)c(F)cc4c32)cc1F [Compound 147]

>  <subject-of-test>
HBV rcDNA in HepDE19 cells

>  <pEC50>
5.48

$$$$
>  <molecule>
CN(C(=O)c1cccc(-c2ccc(F)cc2)c1)[C@@H]1COCc2[nH]c(=O)c3cc(F)c(F)cc3c21 [Compound 289]

>  <subject-of-test>
HBV rcDNA in HepDE19 cells

>  <pEC50>
5.19

$$$$

Sample CN(C(=O)c1csc(Cl)c1)[C@@H]1COCc2[nH]c(=O)c3cc(F)c(F)cc3c21 [Compound 140] — what was its pEC50?
7.00

// query pEC50 value for entry CN(C(=O)c1ccc(F)c(F)c1)[C@@H]1COCc2[nH]c(=O)c3cc(F)c(F)cc3c21 [Compound 92]
6.55

Can you look up the measured pEC50 of CN(C(=O)c1ccc(C(F)F)c(F)c1)[C@@H]1COCc2[nH]c(=O)c3cc(F)c(F)cc3c21 [Compound 110] for me?
8.00

Form field: reported pEC50 of Cc1cc2ccc(C(=O)N(C)[C@@H]3COCc4[nH]c(=O)c5cc(F)c(F)cc5c43)cn2c1 [Compound 277]
6.38
